Measured protein stability index accompanies every entry in the list below.
B1: MIA2 (parent)
chain: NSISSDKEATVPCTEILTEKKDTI

# Variants of: B1
# procedure.text: protein stability index of a GFP-peptide fusion (GPS, HEK-293T) (PSI 1-6); higher = more stable;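 note: lentivirally expressed fusions sorted by FACS into six bins by GFP to DsRed ratio, PSI derived from sequencing read proportions per bin multiplied by bin number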
# settings: c terminus: a fixed tail appended
observed.property: protein stability index

1) NKISSDKEATVPCTEILTEKKDTI: 5.19
2) NSISKDKEATVPCTEILTEKKDTI: 5.83
3) NSISSDKEATWPCTEILTEKKDTI: 5.22
4) NSISSDKEAIVPCTEILTEKKDTI: 5.2
5) NSISSWKEATVPCTEILTEKKDTI: 4.62
6) NSISSDDEATVPCTEILTEKKDTI: 5.4
7) NSISSDKEATVPCTEILTEKKATI: 5.35
8) NSISSDKEATVPCTEILTEKTDTI: 5.51
9) NSISSDKEATVPCTEIWTEKKDTI: 4.52
10) NSISSDKEATVQCTEILTEKKDTI: 5.4
11) NSISSAKEATVPCTEILTEKKDTI: 5.45
12) NSISSDKEAEVPCTEILTEKKDTI: 5.82
13) WSISSDKEATVPCTEILTEKKDTI: 4.89
14) NSISSDKEATVPCTEKLTEKKDTI: 5.64
15) NSISMDKEATVPCTEILTEKKDTI: 5.23
16) NSISSDKEATVPCTEILTEKKDCI: 5.46
17) NSISSDKCATVPCTEILTEKKDTI: 5.27
18) NSISSDKEATVPCTEILTEKKDTC: 5.68
19) NSISSDKEATVPCTEILTEKDDTI: 5.72
20) NSISSDKIATVPCTEILTEKKDTI: 5.32
21) NSISSDKEATQPCTEILTEKKDTI: 5.53
22) NSISSDKEATVPCTEILTEKSDTI: 5.37
23) NHISSDKEATVPCTEILTEKKDTI: 5.09
24) NSISSDKLATVPCTEILTEKKDTI: 5.31
25) NSISSDKEATVPCHEILTEKKDTI: 5.45
26) NSISSDKEATVPCTEIHTEKKDTI: 5.21
27) NSISSDKEATVPCTEILTWKKDTI: 4.59
28) NSISSDEEATVPCTEILTEKKDTI: 5.21
29) NSISSFKEATVPCTEILTEKKDTI: 4.84
30) NSIHSDKEATVPCTEILTEKKDTI: 5.5
31) NSISSDKEATVPCTRILTEKKDTI: 4.9
32) NSISSDKEATKPCTEILTEKKDTI: 5.59
33) NSISSDKEATVPCTEICTEKKDTI: 5.51
34) NSISSDKEATVPCTEILWEKKDTI: 5.05
35) NNISSDKEATVPCTEILTEKKDTI: 5.66
36) NSISSDKEATVPTTEILTEKKDTI: 5.66
37) NSISSDKEATVPCTEILDEKKDTI: 5.72
38) NSICSDKEATVPCTEILTEKKDTI: 5.67
39) NSISSDKEATVPCTDILTEKKDTI: 5.45
40) YSISSDKEATVPCTEILTEKKDTI: 4.81
41) NSISSDREATVPCTEILTEKKDTI: 5.07
42) NSISSDKEATVPCTEILTEFKDTI: 4.64
43) NSISSDKEATVPCTEILTEKKQTI: 5.11
44) NSISSDKEKTVPCTEILTEKKDTI: 5.47
45) NSISSDKEATVPCTEILLEKKDTI: 5.11
46) NSISSDKEATVPCTEIETEKKDTI: 5.78
47) NSISSDKEATVPCTEALTEKKDTI: 5.53
48) ISISSDKEATVPCTEILTEKKDTI: 4.79
49) NMISSDKEATVPCTEILTEKKDTI: 5.54
50) NDISSDKEATVPCTEILTEKKDTI: 5.59
51) NSISSKKEATVPCTEILTEKKDTI: 5.2
52) NSISSDVEATVPCTEILTEKKDTI: 4.95
53) NSIESDKEATVPCTEILTEKKDTI: 5.68
54) NSISSDTEATVPCTEILTEKKDTI: 5.49
55) NSISSDKEATVPCTEILTEKKDGI: 5.5
56) NSVSSDKEATVPCTEILTEKKDTI: 5.45
57) NFISSDKEATVPCTEILTEKKDTI: 5.37
58) NSISSDKEATVPCTEILTEKKFTI: 4.5
59) NSISSDKEATVPCTNILTEKKDTI: 5.23
60) NSISNDKEATVPCTEILTEKKDTI: 5.69
61) NSSSSDKEATVPCTEILTEKKDTI: 5.42
62) NSLSSDKEATVPCTEILTEKKDTI: 5.02
63) NSISSQKEATVPCTEILTEKKDTI: 5.12
64) NSISSDKEATVPCTEILTEKKMTI: 4.62
65) NSISSDKEATVPCTEILTCKKDTI: 5.21
66) NSISSDKEATVPCTEIKTEKKDTI: 5.46
67) NSISSDKEATVPCTYILTEKKDTI: 4.68
68) NSISSDKHATVPCTEILTEKKDTI: 4.91
69) NSYSSDKEATVPCTEILTEKKDTI: 5.58
70) NAISSDKEATVPCTEILTEKKDTI: 5.52
71) NSISSDWEATVPCTEILTEKKDTI: 5.05
72) NSISCDKEATVPCTEILTEKKDTI: 5.25
73) NSISTDKEATVPCTEILTEKKDTI: 5.39
74) NSISSDKEATVPCTEILTEKHDTI: 5.15
75) NSISSDKEATVPCGEILTEKKDTI: 5.09
76) NSISSDNEATVPCTEILTEKKDTI: 5.51
77) NSISSDKEATVPCTEDLTEKKDTI: 5.81
78) NSISSDKEATVPCTEILTEKKDQI: 5.55
79) NSISSDKEATVPYTEILTEKKDTI: 5.01
80) NSISHDKEATVPCTEILTEKKDTI: 5.47
81) NSISSDKEATEPCTEILTEKKDTI: 5.52
82) NSISSDKEATVPCSEILTEKKDTI: 5.36
83) NSISSDKEATVPITEILTEKKDTI: 5.54
84) NSISSDKEATVPCTEILTEKKTTI: 5.04
85) DSISSDKEATVPCTEILTEKKDTI: 5.25
86) NSISSDKEATVPCTEILHEKKDTI: 5.35
87) NSISSDKEATVPCTEILTEKKDPI: 5.65
88) NSISSDKEATVPVTEILTEKKDTI: 5.58
89) NSISSDKEATVPCTEILTECKDTI: 5.25
90) NSISSDKEATVPCTELLTEKKDTI: 5.51
91) NSISSDKEATVPCQEILTEKKDTI: 5.13
